# maps each entry to its TNFα (pg/ml) Subject 2
system: TNFα secretion by normal human bladder smooth muscle cells; experiment: TNFα ELISA of normal human bladder smooth muscle cell supernatants; assay type: cell-based; conditions: LPS (10 μg/ml) plus analgesic 5 μM; LPS alone 4107
Express the result in pg/mL but write the number alone.

Field: example entries. Status: answers known.
COc1ccc2cc([C@H](C)C(=O)O)ccc2c1 = 2215
CC(C)Cc1ccc(C(C)C(=O)O)cc1 (stereo not shown) = 2288
CC(=O)Nc1ccc(O)cc1 = 2267

Could you now look at the following compound, please?
Record CC(=O)Oc1ccccc1C(=O)O / TNFα secretion by normal human bladder smooth muscle cells, TNFα (pg/ml) Subject 2 recorded as 2187

====

tested on: PGE2 secretion by normal human bladder smooth muscle cells; test: PGE2 ELISA of normal human bladder smooth muscle cell supernatants; type: cell-based; details: Carbachol 10^−3 M plus analgesic 50 μM; carbachol alone 104, unstimulated <20.5
Readings of PGE2 levels (pg/ml) Subject 2 for the listed compounds
Report as: number unit

COc1ccc2cc([C@H](C)C(=O)O)ccc2c1 [Naproxen] = 66 pg/mL

Briefly, PGE2 levels (pg/ml) Subject 2 measured for CC(=O)Nc1ccc(O)cc1 [Acetaminophen, N-acetyl-para-aminophenol] : 62 pg/mL

Record summary for CC(C)Cc1ccc(C(C)C(=O)O)cc1 (stereo not shown) [Ibuprofen, ibuprofen] : reported PGE2 levels (pg/ml) Subject 2 = 73 pg/mL

Per the record, CC(=O)Oc1ccccc1C(=O)O [Aspirin, Acetylsalicylic acid] has PGE2 levels (pg/ml) Subject 2 of 59 pg/mL

====

The following compounds are listed with their measured % Positive CD40+CD80+ values.
test system: expression of co-stimulatory molecules by Raw 264 macrophage cells; assay: Flow cytometry of co-stimulatory molecules CD40 and CD80 on macrophages treated with analgesic, with or without LPS; assay type: cell-based, Murine; conditions: analgesic plus LPS, analgesic 5 nM; LPS 5 ng/ml alone 77.8
Field format: number, assumed %, no unit text.

The reported expression of co-stimulatory molecules by Raw 264 macrophage cells % Positive CD40+CD80+ of COc1ccc2cc([C@H](C)C(=O)O)ccc2c1 [Naproxen] is 73

Tested on expression of co-stimulatory molecules by Raw 264 macrophage cells, the item CC(=O)Nc1ccc(O)cc1 [Acetaminophen, N-acetyl-para-aminophenol] showed % Positive CD40+CD80+ equal to 62.1

Lab entry: expression of co-stimulatory molecules by Raw 264 macrophage cells assay, compound CC(=O)Oc1ccccc1C(=O)O [Aspirin, Acetylsalicylic acid] , % Positive CD40+CD80+ = 65.7

% Positive CD40+CD80+ value, target or system expression of co-stimulatory molecules by Raw 264 macrophage cells, for CC(C)Cc1ccc(C(C)C(=O)O)cc1 (stereo not shown) [Ibuprofen, ibuprofen] : 60.3

====

tested on: PGE2 secretion by normal human bladder smooth muscle cells; experiment: PGE2 ELISA of normal human bladder smooth muscle cell supernatants; assay type: cell-based; settings: LPS (10 μg/ml) plus analgesic 5 μM; LPS alone 998
assay.readout: PGE2 levels (pg/ml) Subject 2 (pg/mL)
Response body: numeric value in pg/mL, unit text excluded.

The cases that follow already have their PGE2 levels (pg/ml) Subject 2 on record.
CC(=O)Oc1ccccc1C(=O)O [Aspirin, Acetylsalicylic acid] = 598
CC(C)Cc1ccc(C(C)C(=O)O)cc1 (stereo not shown) [Ibuprofen, ibuprofen] = 527

Measured PGE2 levels (pg/ml) Subject 2, COc1ccc2cc([C@H](C)C(=O)O)ccc2c1 [Naproxen] : 506

So, CC(=O)Nc1ccc(O)cc1 [Acetaminophen, N-acetyl-para-aminophenol] ? Its PGE2 levels (pg/ml) Subject 2 was 542

====

Recorded measurements of % Positive CD40+CD80+, one per entry
test system: expression of co-stimulatory molecules by Raw 264 macrophage cells; experiment: Flow cytometry of co-stimulatory molecules CD40 and CD80 on macrophages treated with analgesic, with or without LPS; assay type: cell-based, Murine; conditions: analgesic alone, 5 × 10^3 nM; negative control 20.6
Only the number, expressed in %, is required.

A selection of reference data follows.
CC(=O)Nc1ccc(O)cc1 = 9.8
COc1ccc2cc([C@H](C)C(=O)O)ccc2c1 = 6.9
CC(=O)Oc1ccccc1C(=O)O = 8.3

Now, please, on to the next molecule.
So for CC(C)Cc1ccc(C(C)C(=O)O)cc1 (stereo not shown) , the logged % Positive CD40+CD80+ turned out to be 7.9

====

test system: expression of co-stimulatory molecules by Raw 264 macrophage cells; assay: Flow cytometry of co-stimulatory molecules CD40 and CD80 on macrophages treated with analgesic, with or without LPS; type: cell-based, Murine; settings: analgesic alone, 5 nM; negative control 20.6
Quick reference for % Positive CD40+CD80+ among some compounds
Enter the number, and then the unit.

CC(=O)Oc1ccccc1C(=O)O = 7.5%
COc1ccc2cc([C@H](C)C(=O)O)ccc2c1 = 5.2%
CC(=O)Nc1ccc(O)cc1 = 7.5%

Proceed to the following item.
// CC(C)Cc1ccc(C(C)C(=O)O)cc1 (stereo not shown) : % Positive CD40+CD80+ value = 5.8%
